Molecular target: PR (Homo sapiens)
Sequence (P06401 1-933): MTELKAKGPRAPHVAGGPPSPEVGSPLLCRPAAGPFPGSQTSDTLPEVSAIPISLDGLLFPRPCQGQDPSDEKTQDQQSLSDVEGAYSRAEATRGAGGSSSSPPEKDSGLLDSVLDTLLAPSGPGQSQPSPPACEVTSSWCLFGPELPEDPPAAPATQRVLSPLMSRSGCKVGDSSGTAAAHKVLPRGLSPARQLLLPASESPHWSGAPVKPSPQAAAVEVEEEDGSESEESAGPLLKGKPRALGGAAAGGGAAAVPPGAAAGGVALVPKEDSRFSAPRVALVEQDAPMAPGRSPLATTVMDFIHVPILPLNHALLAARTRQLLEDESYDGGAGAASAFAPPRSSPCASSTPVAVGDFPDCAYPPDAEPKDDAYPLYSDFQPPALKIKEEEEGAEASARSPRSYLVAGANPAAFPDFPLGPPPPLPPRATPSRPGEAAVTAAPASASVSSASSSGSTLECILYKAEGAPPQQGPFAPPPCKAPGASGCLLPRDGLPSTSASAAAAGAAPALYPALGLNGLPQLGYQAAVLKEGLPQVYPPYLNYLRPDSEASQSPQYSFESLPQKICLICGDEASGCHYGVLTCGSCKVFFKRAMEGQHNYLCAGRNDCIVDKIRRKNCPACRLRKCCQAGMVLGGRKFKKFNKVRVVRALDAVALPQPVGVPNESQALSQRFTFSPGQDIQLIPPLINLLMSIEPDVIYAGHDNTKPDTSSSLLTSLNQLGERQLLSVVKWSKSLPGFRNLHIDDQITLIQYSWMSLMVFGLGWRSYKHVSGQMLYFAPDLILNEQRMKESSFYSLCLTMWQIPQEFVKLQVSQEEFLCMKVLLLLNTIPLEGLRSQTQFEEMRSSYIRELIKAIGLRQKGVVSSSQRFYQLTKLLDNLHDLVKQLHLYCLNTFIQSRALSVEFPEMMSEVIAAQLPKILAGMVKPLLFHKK
Test: nuclear receptor cellular GAL4 reporter assay
Details: agonist and antagonist mode; read-out: potency in agonist and antagonist mode
PROPERTY: IC50

CC1CCCN1C(=O)c1nc(C(=O)NCC(C)(C)O)sc1-c1ccc(C(O)(C(F)(F)F)C(F)(F)F)c(Cl)c1Cl (stereo not shown) [JNJ-61803534] = > 1500 nM

###

experiment: phase 1 single ascending dose study, pharmacokinetics; type: in vivo, human; conditions: both sexes, human, plasma, po, 200 mg, 200 mg single oral dose, fasted, n=6; median (range); read-out: tmax
PROPERTY: Tmax

CC1CCCN1C(=O)c1nc(C(=O)NCC(C)(C)O)sc1-c1ccc(C(O)(C(F)(F)F)C(F)(F)F)c(Cl)c1Cl (stereo not shown) = 6 h

###

target: V1A (Homo sapiens, UniProt P37288); assay: GPCR panel, cAMP or calcium FLIPR assays; type: cell-based; details: antagonist
Sequence (P37288 whole entry): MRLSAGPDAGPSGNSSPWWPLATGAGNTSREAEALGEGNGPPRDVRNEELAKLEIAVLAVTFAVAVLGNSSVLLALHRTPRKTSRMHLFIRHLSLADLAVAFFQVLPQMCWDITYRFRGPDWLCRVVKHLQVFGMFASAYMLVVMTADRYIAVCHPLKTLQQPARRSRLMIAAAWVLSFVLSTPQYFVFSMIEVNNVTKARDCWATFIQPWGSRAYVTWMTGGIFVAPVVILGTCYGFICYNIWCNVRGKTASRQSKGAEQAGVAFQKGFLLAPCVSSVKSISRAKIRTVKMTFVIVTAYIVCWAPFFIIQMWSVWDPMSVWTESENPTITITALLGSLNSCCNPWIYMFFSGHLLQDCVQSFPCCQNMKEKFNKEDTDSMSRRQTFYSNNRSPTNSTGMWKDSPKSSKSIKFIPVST
PROPERTY: IC50

CC1CCCN1C(=O)c1nc(C(=O)NCC(C)(C)O)sc1-c1ccc(C(O)(C(F)(F)F)C(F)(F)F)c(Cl)c1Cl (stereo not shown) = > 10 µM

###

assay: mouse PK/PD model, plasma exposure; format: in vivo; conditions: female, C57B6, mouse, plasma (5-fold diluted, extrapolated); 100 mg/kg oral, 7 h; calculated for 5-fold dilution; read-out: concentration in 5-fold diluted plasma
PROPERTY: concentration at 7 h (nM)

CC1CCCN1C(=O)c1nc(C(=O)NCC(C)(C)O)sc1-c1ccc(C(O)(C(F)(F)F)C(F)(F)F)c(Cl)c1Cl (stereo not shown) = 2300

###

target: GR (Homo sapiens, UniProt P04150); experiment: nuclear receptor cellular GAL4 reporter assay; conditions: agonist and antagonist mode; read-out: potency in agonist and antagonist mode
Sequence (P04150 whole entry, the tested form may be a part): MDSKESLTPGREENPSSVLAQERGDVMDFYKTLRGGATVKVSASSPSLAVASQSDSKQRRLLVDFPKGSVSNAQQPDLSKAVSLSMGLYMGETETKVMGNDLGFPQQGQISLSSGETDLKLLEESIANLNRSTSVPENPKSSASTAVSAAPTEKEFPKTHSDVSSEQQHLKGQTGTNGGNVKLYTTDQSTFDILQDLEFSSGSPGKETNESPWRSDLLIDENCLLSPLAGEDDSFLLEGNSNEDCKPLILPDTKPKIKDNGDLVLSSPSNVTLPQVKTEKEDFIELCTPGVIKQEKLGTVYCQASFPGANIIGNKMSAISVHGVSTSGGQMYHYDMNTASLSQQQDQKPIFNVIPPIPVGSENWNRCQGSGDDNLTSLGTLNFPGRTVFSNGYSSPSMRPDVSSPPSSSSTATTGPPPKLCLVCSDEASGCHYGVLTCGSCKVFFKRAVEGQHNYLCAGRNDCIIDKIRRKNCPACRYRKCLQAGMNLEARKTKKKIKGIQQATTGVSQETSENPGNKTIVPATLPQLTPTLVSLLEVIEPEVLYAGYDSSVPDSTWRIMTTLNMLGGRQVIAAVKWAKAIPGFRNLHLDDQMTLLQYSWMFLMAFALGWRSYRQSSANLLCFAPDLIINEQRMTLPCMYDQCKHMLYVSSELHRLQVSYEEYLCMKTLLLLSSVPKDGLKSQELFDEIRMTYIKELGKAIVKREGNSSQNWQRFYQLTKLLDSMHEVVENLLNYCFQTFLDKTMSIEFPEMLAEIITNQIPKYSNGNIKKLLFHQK
PROPERTY: IC50

CC1CCCN1C(=O)c1nc(C(=O)NCC(C)(C)O)sc1-c1ccc(C(O)(C(F)(F)F)C(F)(F)F)c(Cl)c1Cl (stereo not shown) = > 1500 nM

###

target: M3 (Homo sapiens); assay: GPCR panel, cAMP or calcium FLIPR assays; assay type: cell-based; details: agonist
Sequence (P20309 whole entry): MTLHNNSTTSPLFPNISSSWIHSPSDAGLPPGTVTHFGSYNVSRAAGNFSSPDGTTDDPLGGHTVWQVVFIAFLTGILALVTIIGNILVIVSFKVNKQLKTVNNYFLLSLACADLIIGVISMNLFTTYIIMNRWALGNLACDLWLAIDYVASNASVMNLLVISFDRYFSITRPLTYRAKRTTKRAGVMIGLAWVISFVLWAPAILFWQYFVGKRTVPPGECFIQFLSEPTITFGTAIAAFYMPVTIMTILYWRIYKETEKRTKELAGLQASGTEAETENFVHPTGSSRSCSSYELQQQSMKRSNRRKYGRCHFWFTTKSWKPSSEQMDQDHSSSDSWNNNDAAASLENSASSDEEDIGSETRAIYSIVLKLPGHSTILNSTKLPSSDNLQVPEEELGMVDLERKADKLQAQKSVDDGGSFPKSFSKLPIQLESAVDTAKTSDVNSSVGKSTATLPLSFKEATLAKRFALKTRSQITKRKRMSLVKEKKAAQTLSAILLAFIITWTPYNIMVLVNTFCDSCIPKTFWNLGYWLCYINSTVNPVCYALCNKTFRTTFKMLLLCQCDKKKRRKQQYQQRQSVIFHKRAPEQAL
PROPERTY: EC50

CC1CCCN1C(=O)c1nc(C(=O)NCC(C)(C)O)sc1-c1ccc(C(O)(C(F)(F)F)C(F)(F)F)c(Cl)c1Cl (stereo not shown) [JNJ-61803534] = > 10 µM

###

experiment: mouse PK/PD model, plasma exposure; assay type: in vivo; conditions: female, C57B6, mouse, plasma (5-fold diluted, extrapolated); 100 mg/kg oral, 12 h; calculated for 5-fold dilution; read-out: concentration in 5-fold diluted plasma
PROPERTY: concentration at 12 h

CC1CCCN1C(=O)c1nc(C(=O)NCC(C)(C)O)sc1-c1ccc(C(O)(C(F)(F)F)C(F)(F)F)c(Cl)c1Cl (stereo not shown) = 0.86 µM

###

target: ADRB1 (Homo sapiens, UniProt P08588); experiment: GPCR panel, cAMP or calcium FLIPR assays; format: cell-based; settings: agonist
Sequence (P08588 whole entry): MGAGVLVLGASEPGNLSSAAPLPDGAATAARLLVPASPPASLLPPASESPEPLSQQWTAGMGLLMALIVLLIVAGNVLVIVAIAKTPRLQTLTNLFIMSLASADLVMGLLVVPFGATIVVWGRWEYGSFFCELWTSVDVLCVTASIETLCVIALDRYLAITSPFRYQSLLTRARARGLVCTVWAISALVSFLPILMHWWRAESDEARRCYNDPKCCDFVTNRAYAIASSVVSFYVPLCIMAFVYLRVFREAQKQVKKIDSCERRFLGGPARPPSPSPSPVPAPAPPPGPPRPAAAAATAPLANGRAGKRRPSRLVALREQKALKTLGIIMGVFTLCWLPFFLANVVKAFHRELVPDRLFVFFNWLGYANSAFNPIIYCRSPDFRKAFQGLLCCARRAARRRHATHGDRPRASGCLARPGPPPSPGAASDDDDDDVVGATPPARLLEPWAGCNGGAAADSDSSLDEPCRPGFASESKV
PROPERTY: EC50

CC1CCCN1C(=O)c1nc(C(=O)NCC(C)(C)O)sc1-c1ccc(C(O)(C(F)(F)F)C(F)(F)F)c(Cl)c1Cl (stereo not shown) = > 12.5 µM

###

target: H1 (Homo sapiens, UniProt P35367); test: GPCR panel, cAMP or calcium FLIPR assays; type: cell-based; conditions: antagonist
Sequence (P35367 whole entry): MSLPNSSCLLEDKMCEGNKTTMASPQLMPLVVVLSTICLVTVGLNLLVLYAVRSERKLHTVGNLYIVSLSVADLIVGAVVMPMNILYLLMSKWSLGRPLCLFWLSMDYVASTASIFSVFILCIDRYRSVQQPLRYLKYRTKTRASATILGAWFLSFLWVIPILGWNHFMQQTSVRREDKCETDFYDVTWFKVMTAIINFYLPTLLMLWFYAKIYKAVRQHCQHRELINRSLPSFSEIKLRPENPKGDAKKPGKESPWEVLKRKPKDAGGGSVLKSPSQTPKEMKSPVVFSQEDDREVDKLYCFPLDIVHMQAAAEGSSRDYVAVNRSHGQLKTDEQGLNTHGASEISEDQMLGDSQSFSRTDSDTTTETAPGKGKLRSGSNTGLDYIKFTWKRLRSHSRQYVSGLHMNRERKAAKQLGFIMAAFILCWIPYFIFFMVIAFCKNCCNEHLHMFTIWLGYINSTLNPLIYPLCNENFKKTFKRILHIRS
PROPERTY: IC50

CC1CCCN1C(=O)c1nc(C(=O)NCC(C)(C)O)sc1-c1ccc(C(O)(C(F)(F)F)C(F)(F)F)c(Cl)c1Cl (stereo not shown) = > 10 µM

###

target: M2 (Homo sapiens, UniProt P08172); assay: GPCR panel, cAMP or calcium FLIPR assays; format: cell-based; conditions: antagonist
Sequence (P08172 whole entry): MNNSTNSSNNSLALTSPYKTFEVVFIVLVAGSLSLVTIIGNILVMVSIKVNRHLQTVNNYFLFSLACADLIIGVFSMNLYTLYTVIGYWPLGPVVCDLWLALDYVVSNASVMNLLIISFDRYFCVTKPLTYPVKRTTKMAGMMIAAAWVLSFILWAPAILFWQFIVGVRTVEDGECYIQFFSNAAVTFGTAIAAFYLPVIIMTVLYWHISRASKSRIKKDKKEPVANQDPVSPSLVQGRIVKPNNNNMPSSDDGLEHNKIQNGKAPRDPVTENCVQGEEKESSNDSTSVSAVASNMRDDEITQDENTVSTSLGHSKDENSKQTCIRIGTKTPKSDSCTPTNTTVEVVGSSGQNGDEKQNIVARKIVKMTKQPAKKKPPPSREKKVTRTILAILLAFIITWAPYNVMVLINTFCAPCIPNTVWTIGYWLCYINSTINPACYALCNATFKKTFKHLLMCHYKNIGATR
PROPERTY: IC50

CC1CCCN1C(=O)c1nc(C(=O)NCC(C)(C)O)sc1-c1ccc(C(O)(C(F)(F)F)C(F)(F)F)c(Cl)c1Cl (stereo not shown) = > 12.5 µM

###

assay: phase 1 single ascending dose study, pharmacokinetics; format: in vivo, human; conditions: both sexes, human, plasma, po, 200 mg, 200 mg single oral dose, fasted, n=6; mean (SD)
PROPERTY: Cmax (ng/mL)

CC1CCCN1C(=O)c1nc(C(=O)NCC(C)(C)O)sc1-c1ccc(C(O)(C(F)(F)F)C(F)(F)F)c(Cl)c1Cl (stereo not shown) [JNJ-61803534] = 1810

###

Molecular target: CAR (Homo sapiens, UniProt Q14994)
Sequence (Q14994 1-352): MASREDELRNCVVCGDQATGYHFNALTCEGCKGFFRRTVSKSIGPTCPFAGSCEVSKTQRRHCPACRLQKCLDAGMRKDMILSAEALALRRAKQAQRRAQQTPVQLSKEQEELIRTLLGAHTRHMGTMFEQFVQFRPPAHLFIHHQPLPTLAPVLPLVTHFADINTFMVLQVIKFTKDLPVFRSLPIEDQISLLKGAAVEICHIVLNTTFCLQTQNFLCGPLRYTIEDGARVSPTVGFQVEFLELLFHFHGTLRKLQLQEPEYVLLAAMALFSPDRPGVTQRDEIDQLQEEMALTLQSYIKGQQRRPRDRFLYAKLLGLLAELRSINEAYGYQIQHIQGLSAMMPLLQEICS
Experiment: nuclear receptor cellular GAL4 reporter assay
Settings: agonist and antagonist mode; read-out: potency in agonist and antagonist mode
PROPERTY: IC50

CC1CCCN1C(=O)c1nc(C(=O)NCC(C)(C)O)sc1-c1ccc(C(O)(C(F)(F)F)C(F)(F)F)c(Cl)c1Cl (stereo not shown) = > 1500 nM

###

biological target: UniProtKB P08172; assay: GPCR panel, cAMP or calcium FLIPR assays; type: cell-based; conditions: agonist
PROPERTY: EC50

CC1CCCN1C(=O)c1nc(C(=O)NCC(C)(C)O)sc1-c1ccc(C(O)(C(F)(F)F)C(F)(F)F)c(Cl)c1Cl (stereo not shown) [JNJ-61803534] = > 12.5 µM

###

molecular target: UniProtKB P07550; test: GPCR panel, cAMP or calcium FLIPR assays; format: cell-based; settings: agonist
Sequence (P07550 whole entry, species assumed): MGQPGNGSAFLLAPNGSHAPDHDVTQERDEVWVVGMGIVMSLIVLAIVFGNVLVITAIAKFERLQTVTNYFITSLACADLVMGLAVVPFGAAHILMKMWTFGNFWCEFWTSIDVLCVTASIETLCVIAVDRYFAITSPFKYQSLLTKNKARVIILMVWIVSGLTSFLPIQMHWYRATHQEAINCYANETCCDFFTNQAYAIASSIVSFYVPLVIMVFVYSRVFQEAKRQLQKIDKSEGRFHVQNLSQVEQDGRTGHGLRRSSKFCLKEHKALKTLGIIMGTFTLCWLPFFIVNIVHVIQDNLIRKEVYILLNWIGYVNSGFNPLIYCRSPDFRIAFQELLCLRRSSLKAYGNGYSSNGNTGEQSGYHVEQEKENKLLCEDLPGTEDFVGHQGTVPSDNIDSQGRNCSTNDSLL
PROPERTY: EC50

CC1CCCN1C(=O)c1nc(C(=O)NCC(C)(C)O)sc1-c1ccc(C(O)(C(F)(F)F)C(F)(F)F)c(Cl)c1Cl (stereo not shown) = > 12.5 µM

###

Target: ADRA2A (Homo sapiens)
Sequence (P08913 1-465): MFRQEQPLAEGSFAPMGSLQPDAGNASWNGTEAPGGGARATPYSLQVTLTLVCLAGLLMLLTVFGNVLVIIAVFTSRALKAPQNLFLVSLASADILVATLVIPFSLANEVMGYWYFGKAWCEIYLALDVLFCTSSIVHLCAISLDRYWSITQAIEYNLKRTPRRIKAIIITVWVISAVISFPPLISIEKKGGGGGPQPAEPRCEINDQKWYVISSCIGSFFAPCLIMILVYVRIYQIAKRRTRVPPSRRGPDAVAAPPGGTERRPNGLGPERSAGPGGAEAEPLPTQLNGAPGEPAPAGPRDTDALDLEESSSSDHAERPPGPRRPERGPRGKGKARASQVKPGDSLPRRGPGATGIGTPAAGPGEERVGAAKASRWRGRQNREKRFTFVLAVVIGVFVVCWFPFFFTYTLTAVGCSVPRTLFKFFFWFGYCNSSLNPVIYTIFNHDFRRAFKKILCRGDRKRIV
Test: GPCR panel, cAMP or calcium FLIPR assays
Format: cell-based
Details: agonist
PROPERTY: EC50

CC1CCCN1C(=O)c1nc(C(=O)NCC(C)(C)O)sc1-c1ccc(C(O)(C(F)(F)F)C(F)(F)F)c(Cl)c1Cl (stereo not shown) [JNJ-61803534] = > 12.5 µM
